Molecular target: T1, Toxoplasma gondii importin α, biotinylated GST fusion protein (Toxoplasma gondii, biotin (Sulfo-NHS-Biotin reagent))
T1 construct: importin α (IMPα) of Toxoplasma gondii; also called TgIMPα; T. gondii IMPα; source: recombinantly expressed, purified as GST fusion protein
Experiment: AlphaScreen or HTRF; biotinylated IMPαs titrated against His-tagged NLS-GFPs (30 nM); apparent dissociation constant
Conditions: both partners purified

binder	Kd / nM
PPKKKRKV (domain or fragment) [His-tagged T-ag-NLS-GFP (NLS of simian virus SV40 large tumour antigen fused to GFP)]	3.9
